Give measured pEC50 for each item. Keep answers brief.
system: panel of cancer cell lines; assay: Cell viability (CellTiter-Glo) dose-response across cancer cell line panel; format: cell-based, human; conditions: Homo sapiens, Malme-3M;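 note: after 72 h compound incubation with CellTiter-Glo ATP readout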
One number for each entry, as −log10 of the molar value.

Known results for compounds:
CC(C)C[C@H](NC(=O)[C@H](Cc1ccccc1)NC(=O)c1cnccn1)B(O)O    8.49
NS(=O)(=O)OC[C@@H]1C[C@@H](n2ccc3c(N[C@H]4CCc5ccccc54)ncnc32)C[C@@H]1O    6.28

With those in mind, consider the next compound.
(Q) Query (compound): `COCc1ccccc1NCc1ccc([C@H]2[C@@H](O)CCCc3cncn32)c(-c2ccccc2Cl)c1` ; field requested: pEC50
(A) 5.69
